- System: SW982;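 further: growth inhibition of SW982 cells, read out with a cell viability assay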
- protocol_text: cells
- Format: functional, cell-based
- test_context: Homo sapiens
- Description: SANGER: Inhibition of human SW982 cell growth in a cell viability assay.
pIC50: −log10 of the molar value.
The compounds listed here are annotated with their pIC50.
parameter: pIC50

- compound: "Cc1ccc(Nc2nccc(N(C)c3ccc4c(C)n(C)nc4c3)n2)cc1S(N)(=O)=O [PAZOPANIB]"
  study_system: "SW982"
  observed_value: "< 5.10"
- compound: "CN(Cc1cnc2nc(N)nc(N)c2n1)c1ccc(C(=O)N[C@@H](CCC(=O)O)C(=O)O)cc1 [METHOTREXATE]"
  study_system: "SW982"
  observed_value: "< 6.70"
- compound: "C[C@]1(O)C[C@@H](c2nc(-c3ccc4ccc(-c5ccccc5)nc4c3)c3c(N)nccn32)C1 [LINSITINIB]"
  study_system: "SW982"
  observed_value: "< 5.59"
- compound: "Cc1cnc(-c2cnc(NCCNc3ccc(C#N)cn3)nc2-c2ccc(Cl)cc2Cl)[nH]1 [LADUVIGLUSIB]"
  study_system: "SW982"
  observed_value: 6.67
